# Test system: Enterobacter sakazakii
# EXPERIMENTAL DETAILS: Expected efficacy of antibiotic agents
# Format: cell-based
# MEASUREMENT CONTEXT: Gram: neg
RECORDED METRIC: efficacy against Enterobacter sakazakii

{"columns": ["SMILES INPUT", "efficacy against Enterobacter sakazakii"],
 "data": [
  ["NC[C@H]1O[C@H](O[C@H]2[C@H](O)[C@@H](O[C@H]3O[C@H](CO)[C@@H](O)[C@H](N)[C@H]3O)[C@H](N)C[C@@H]2N)[C@H](N)C[C@@H]1O", "yes"],
  ["C/C(=C\\C(=O)OCCCCCCCCC(=O)O)C[C@@H]1OC[C@H](C[C@@H]2O[C@H]2[C@@H](C)[C@H](C)O)[C@@H](O)[C@H]1O", "no"],
  ["CN[C@H](CC(C)C)C(=O)N[C@H]1C(=O)N[C@@H](CC(N)=O)C(=O)N[C@H]2C(=O)N[C@H]3C(=O)N[C@H](C(=O)N[C@H](C(=O)O)c4cc(O)cc(O)c4-c4cc3ccc4O)[C@H](O)c3ccc(c(Cl)c3)Oc3cc2cc(c3O[C@@H]2O[C@H](CO)[C@@H](O)[C@H](O)[C@H]2O[C@H]2C[C@](C)(N)[C@H](O)[C@H](C)O2)Oc2ccc(cc2Cl)[C@H]1O", "no"],
  ["CC[C@H]1OC(=O)[C@H](C)[C@@H](O[C@H]2C[C@@](C)(OC)[C@@H](O)[C@H](C)O2)[C@H](C)[C@@H](O[C@@H]2O[C@H](C)C[C@H](N(C)C)[C@H]2O)[C@](C)(O)C[C@@H](C)CN(C)[C@H](C)[C@@H](O)[C@]1(C)O", "no"]
]}

Request - read-out efficacy against Enterobacter sakazakii | tested on Enterobacter sakazakii | compound CO/N=C(\C(=O)N[C@@H]1C(=O)N2C(C(=O)O)=C(CSc3nc(=O)c(=O)[nH]n3C)CS[C@H]12)c1csc(N)n1
yes

---

# Test system: Mycoplasma pneumoniae
# EXPERIMENTAL DETAILS: Expected efficacy of antibiotic agents
# Type: cell-based
# MEASUREMENT CONTEXT: Gram: n/a

{"columns": ["SMILES INPUT", "efficacy against Mycoplasma pneumoniae"],
 "data": [
  ["NC[C@H]1O[C@H](O[C@H]2[C@H](O)[C@@H](O[C@H]3O[C@H](CO)[C@@H](O)[C@H](N)[C@H]3O)[C@H](N)C[C@@H]2N)[C@H](N)C[C@@H]1O", "no"],
  ["CO/N=C(\\C(=O)N[C@@H]1C(=O)N2C(C(=O)O)=C(CSc3nc(=O)c(=O)[nH]n3C)CS[C@H]12)c1csc(N)n1", "no"],
  ["CC[C@H]1OC(=O)[C@H](C)[C@@H](O[C@H]2C[C@@](C)(OC)[C@@H](O)[C@H](C)O2)[C@H](C)[C@@H](O[C@@H]2O[C@H](C)C[C@H](N(C)C)[C@H]2O)[C@](C)(O)C[C@@H](C)CN(C)[C@H](C)[C@@H](O)[C@]1(C)O", "yes"],
  ["CN[C@H](CC(C)C)C(=O)N[C@H]1C(=O)N[C@@H](CC(N)=O)C(=O)N[C@H]2C(=O)N[C@H]3C(=O)N[C@H](C(=O)N[C@H](C(=O)O)c4cc(O)cc(O)c4-c4cc3ccc4O)[C@H](O)c3ccc(c(Cl)c3)Oc3cc2cc(c3O[C@@H]2O[C@H](CO)[C@@H](O)[C@H](O)[C@H]2O[C@H]2C[C@](C)(N)[C@H](O)[C@H](C)O2)Oc2ccc(cc2Cl)[C@H]1O", "no"]
]}

---

# Tested on: Enterococcus faecium
# EXPERIMENTAL DETAILS: Expected efficacy of antibiotic agents
# Type: cell-based
# MEASUREMENT CONTEXT: Gram: pos

{"columns": ["COMPOUND", "efficacy against Enterococcus faecium"],
 "data": [
  ["CO/N=C(\\C(=O)N[C@@H]1C(=O)N2C(C(=O)O)=C(CSc3nc(=O)c(=O)[nH]n3C)CS[C@H]12)c1csc(N)n1 [Ceftriaxone]", "no"],
  ["O=C(O)c1cn(C2CC2)c2cc(N3CCNCC3)c(F)cc2c1=O [Ciprofloxacin]", "no"],
  ["NC[C@H]1O[C@H](O[C@H]2[C@H](O)[C@@H](O[C@H]3O[C@H](CO)[C@@H](O)[C@H](N)[C@H]3O)[C@H](N)C[C@@H]2N)[C@H](N)C[C@@H]1O [Tobramycin]", "no"],
  ["CC[C@H]1OC(=O)[C@H](C)[C@@H](O[C@H]2C[C@@](C)(OC)[C@@H](O)[C@H](C)O2)[C@H](C)[C@@H](O[C@@H]2O[C@H](C)C[C@H](N(C)C)[C@H]2O)[C@](C)(O)C[C@@H](C)CN(C)[C@H](C)[C@@H](O)[C@]1(C)O [Azithromycin]", "no"]
]}
